Test system: NCI/ADR-RES
Assay: NCI tumour cell line growth inhibition, 48 h
Activity calls are given as the source filed them. No stated cut-off is given here; in the data, active = GI50 up to about 1.1 µM and inactive = higher.
Measure: GI50

Before answering, review these 2 worked examples.
{"Compound": "O=C(CC(=O)N1N=C(N2CCCCC2)CC1c1ccccc1)Nc1ccc(Cl)cc1 (stereo unspecified)", "GI50": "> 100 µM (inactive)"}
{"Compound": "CSC(=S)OC1C(CO[Si](C)(C)C(C)(C)C)OC2OC(C)(C)OC21 (stereo unspecified)", "GI50": "14.7 µM (inactive)"}

List GI50 for every entry below, keeping the order given.
1. COc1cccc2c1C(=O)c1c(O)c3c(c(O)c1C2=O)CC(O)(C(C)=O)CC3O (stereo unspecified)
2. Cc1cc(NS(=O)(=O)c2ccc(NO)cc2)no1
3. CCCCCCCCCCCCCCN [TETRADECYLAMINE]
4. COc1ccccc1C(=O)Nc1ccc(Cl)c(C(=O)OC(C)C)c1

Solution:
1. 5.68 µM (inactive)
2. 39.5 µM (inactive)
3. > 100 µM (inactive)
4. 16.4 µM (inactive)

The measured values listed here are drawn from ChEMBL document CHEMBL1201862.
